Values compiled from paper PMC9995496.

For each of the compounds below, state its Inh (PKA).
System: PRKACA-PRKAR2A interaction (SmBiT-PRKACA / LgBiT-PRKAR2A), protein kinase A
Parameters: NanoLuc complementation counter-screen in cell extract, PRKACA with PRKAR2A, loss of luminescence, detects NanoLuc interference
Conditions: counter-screen for NanoLuc interference; 0.5 h, 20 µM; inhibitor
Numbers only, in %.

Worked cases, answers included:
Cc1c(O)c(=O)ccn1C [UM0142352:01, Deferiprone] :: 0.006466
Cn1c(=O)cc(N2CCC[C@@H](N)C2)n(Cc2cc(F)ccc2C#N)c1=O [UM0141640:01, Trelagliptin] :: -0.04176

Need Inh (PKA) for each of these compounds.
1. CS(=O)(=O)Nc1ccc([N+](=O)[O-])cc1OC1CCCCC1 [UM0142773:01, NS 398]
2. O=C(O)C[C@H](O)C[C@H](O)/C=C/c1c(C2CC2)nc2ccccc2c1-c1ccc(F)cc1 [UM0142066:01, Pitavastatin Calcium]

[50.11, 41.78]

Need Inh (PKA) for each of these compounds.
1. Cc1cc2c(C(C)C)c(O)c(O)c(C=O)c2c(O)c1-c1c(C)cc2c(C(C)C)c(O)c(O)c(C=O)c2c1O [UM0118855:03, Gossypol]
2. C[C@]12CC[C@@H]3c4ccc(OC(=O)c5ccccc5)cc4CC[C@H]3[C@@H]1CC[C@@H]2O [UM0142395:01, Estradiol Benzoate]

56.08
19.47

Need Inh (PKA) for each of these compounds.
1. CC(C)=CCCC(C)(O)C1CCC2(C)C1C(O)CC1C3(C)CCC(O)C(C)(C)C3CCC12C (centres unmarked) [UM0142847:01, Protopanaxdiol]
2. CCOC(=O)c1ccc(C#Cc2ccc3c(c2)C(C)(C)CCS3)nc1 [UM0141904:01, Tazarotene]
3. COc1ccc(/C=C/C(=O)Nc2ccccc2C(=O)O)cc1OC [UM0134356:02, Tranilast]
4. OCCN(CCO)c1nc(N2CCCCC2)c2nc(N(CCO)CCO)nc(N3CCCCC3)c2n1 [UM0118197:03, Dipyridamole]
5. C=C(C)[C@@H]1CC[C@]2(C(=O)O)CC[C@]3(C)[C@H](CC[C@@H]4[C@@]5(C)CC[C@H](O)C(C)(C)[C@@H]5CC[C@]43C)[C@@H]12 [UM0118149:03, Betulinic acid]
6. O=C(O)CCc1ccc(NCc2cccc(Oc3ccccc3)c2)cc1 [UM0141410:01, GW9508]

1. 2.916
2. 17.58
3. 18.34
4. 27.31
5. 14.84
6. 28.45

Need Inh (PKA) for each of these compounds.
1. C[C@@H]1COCCN1c1cc(=O)n2c(n1)N(Cc1cncc(Cl)c1)[C@H](C(F)(F)F)CC2 [UM0142144:01, SAR405]
2. CC(C)n1nc(-c2ccc3oc(N)nc3c2)c2c(N)ncnc21 [UM0142084:01, INK 128 (MLN0128)]

[7.192, 29.78]

* * *

Test system: PRKACA-PRKAR2A interaction (SmBiT-PRKACA / LgBiT-PRKAR2A), protein kinase A
Parameters: NanoLuc complementation counter-screen in cell extract, PRKACA with PRKAR2A, loss of luminescence, detects NanoLuc interference
Settings: counter-screen for NanoLuc interference; 0.5 h, 20 µM; inhibitor
Counter-ions that a name gives are not always drawn.
Readout label: Inh (PKA) (%)
One number for each entry, in %.

Worked cases, answers included:
COCC[n+]1c2c(n(Cc3cnccn3)c1C)C(=O)c1ccccc1C2=O :: 0.9715
CN(C)C(=O)COC(=O)Cc1ccc(OC(=O)c2ccc(NC(=N)N)cc2)cc1 [UM0142412:01, Camostat Mesilate] :: 0.7864
O=C(Nc1ccc(OC(F)(F)F)cc1)c1sccc1NCc1ccnc2ccccc12 :: 39.72
Cc1cccc(Nc2ccccc2C(=O)O)c1C :: 19.56
Cc1ccc(C(=O)Nc2ccc(CN3CCN(C)CC3)c(C(F)(F)F)c2)cc1C#Cc1cnc2cccnn12 :: 38.47
CC[C@@H]([C@H](C)O)n1ncn(-c2ccc(N3CCN(c4ccc(OC[C@@H]5CO[C@@](Cn6cncn6)(c6ccc(F)cc6F)C5)cc4)CC3)cc2)c1=O :: 3.84
CN(C)CCOc1ccc(/C(=C(/CCCl)c2ccccc2)c2ccccc2)cc1 [UM0133287:02, Toremifene Citrate] :: 53.21
CC1(C)CC(=O)c2c(C(F)(F)F)nn(-c3ccc(C(N)=O)c(N[C@H]4CC[C@H](OC(=O)CN)CC4)c3)c2C1 [UM0141688:01, PF-04929113 (SNX-5422)] :: 8.876
N#Cc1cc(-c2n[nH]c(-c3ccncc3)n2)ccn1 :: 3.047
C[C@]1(c2nc3c(C(N)=O)cccc3[nH]2)CCCN1 [UM0141654:01, Veliparib dihydrochloride] :: 0.673

Need Inh (PKA) for each of these compounds.
1. CCC(=O)O[C@]1(C(=O)CCl)[C@@H](C)C[C@H]2[C@@H]3C[C@H](F)C4=CC(=O)C=C[C@]4(C)[C@@]3(F)[C@@H](O)C[C@@]21C [UM0142361:01, Halobetasol Propionate]
2. COC(=O)C1=C(C)NC(C)=C(C(=O)OC(C)C)C1c1cccc2nonc12 (stereo not shown)
3. CCOC(=O)[C@H](CCc1ccccc1)N[C@@H](C)C(=O)N1CCC[C@H]1C(=O)O [UM0132889:02, Enalapril Maleate]

1: 7.218; 2: 94.06; 3: -0.0661

* * *

Target: MeCP2-TBL1 interaction (MeCP2-SmBiT / TBL1-LgBiT) (Mus musculus)
Construct: expressed in transfected cells; crude lysate used as a cell-free assay
Sequence (Q9QXE7 166-527): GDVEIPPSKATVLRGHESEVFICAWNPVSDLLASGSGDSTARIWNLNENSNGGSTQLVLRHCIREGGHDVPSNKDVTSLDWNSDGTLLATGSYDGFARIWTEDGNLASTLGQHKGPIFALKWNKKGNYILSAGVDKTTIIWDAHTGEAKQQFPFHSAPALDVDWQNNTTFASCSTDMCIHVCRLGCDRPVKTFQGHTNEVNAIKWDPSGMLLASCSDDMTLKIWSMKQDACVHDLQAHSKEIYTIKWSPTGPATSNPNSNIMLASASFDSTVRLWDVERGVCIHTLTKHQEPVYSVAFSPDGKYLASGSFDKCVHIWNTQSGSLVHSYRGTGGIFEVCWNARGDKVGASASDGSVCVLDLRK
Assay: MeCP2-TBL1 NanoLuc luciferase complementation assay (cell-free, extracts of transfected HEK293 cells);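 note: each compound tested at 20 µM final concentration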
Type: binding, human
Settings: primary screen of the Asinex library, sheet "Sargen output Asinex library", one well per compound, Batch Ref. 1
For each of the compounds below, state its Inhibition percent.
One number for each entry, in %.

Worked cases, answers included:
COCCNC(=O)c1sc2ncccc2c1C1CCN(Cc2ccc3ncccc3c2)C1 (stereo not drawn) :: -0.43
COc1ccccc1Cc1cnc(C2CCCN(C(=O)c3ccc(Cc4ccccc4)nc3)C2)o1 (stereo not drawn) :: 3.75
Cc1nc(C2CCN(C(=O)c3cccnc3)CC2)nc2c1CCCN2CCc1ccccc1 :: -0.64
COC(=O)C[C@H]1CC[C@H]2[C@H](O1)c1cc(-c3ccccc3)ccc1OC2(C)C :: 2.57
CCc1cc(C(=O)N2CCC3(CC2)CO[C@@H]2c4cc(OC)ccc4OC(C)(C)[C@H]2C3)no1 :: 2.32
Nc1ncc(-c2cccc(C(F)(F)F)c2)c(C2CCCCN2C(=O)CCNC(=O)c2cccnc2)n1 (stereo not drawn) :: 1.39
CC(C)CN1C(=O)C2(CCN(C(=O)Cn3cccnc3=O)CC2)CC1Cc1ccc(F)cc1 (stereo not drawn) :: -0.88
COc1ccc(N2CCN(CC3(O)CCN(c4cccc(C)c4)CC3)C(C(N)=O)C2)cc1 (stereo not drawn) :: -0.28

Need Inhibition percent for each of these compounds.
1. CC1(C)Oc2ccc(Cl)cc2[C@H]2O[C@H]3CCN(CC(=O)N4CC(=O)Nc5ccccc54)C[C@@H]3C[C@@H]21
2. Cc1cc(O[C@@H]2C[C@@H](NC(=O)CCC(=O)O)[C@H](N3CCc4ccccc4C3)[C@H]2O)cc(C(C)C)c1
3. O=C(c1ccccc1Cn1ccnc1)N1CCCC(c2cncc(Oc3ccccc3)n2)C1 (stereo not drawn)
4. O=C(O)CCCC(=O)N[C@@H]1C[C@@H](Oc2cccc(Cl)c2)[C@H](O)[C@H]1N1CCc2ccccc2C1
5. CC(=O)N[C@@]12CN(C(C)=O)CC[C@@H]1[C@@H](c1ccccc1)N(CC(=O)Nc1cccc(F)c1C)C2
6. CCN1CCN(C(=O)Cc2ccccc2OC)C(Cc2ccc(-c3cccnc3)cc2)C1=O (stereo not drawn)
7. CC1(C)Oc2ccc(O)cc2[C@H]2O[C@H]3CCN(C(=O)c4cccc(OCC(=O)O)c4)[C@@H]3C[C@@H]21

1: 2.78; 2: 0.88; 3: 3.75; 4: -0.65; 5: -0.19; 6: -2.52; 7: -2.82

* * *

System: PRKACA-PRKAR2A interaction (SmBiT-PRKACA / LgBiT-PRKAR2A), protein kinase A
Design: NanoLuc complementation counter-screen in cell extract, PRKACA with PRKAR2A, loss of luminescence, detects NanoLuc interference
Settings: counter-screen for NanoLuc interference; 0.5 h, 20 µM; inhibitor
Where a name gives a salt, the structure may show the parent alone.
For each of the compounds below, state its Inh (PKA).
Give bare numbers, in %.

Nc1nccc(-c2c(-c3ccc(F)cc3)ncn2C2CCCCC2)n1 [UM0141603:01, PF-670462] :: 48.77

Need Inh (PKA) for each of these compounds.
1. CCCCNc1ncc2c(-c3ccc(CN4CCN(C)CC4)cc3)cn([C@H]3CC[C@H](O)CC3)c2n1 [UM0142820:01, UNC2025]
2. CCCN[C@H]1CCc2nc(N)sc2C1 [UM0142273:01, Pramipexole]
3. Cc1cnc(Nc2ccc(N3CCN(C)CC3)cc2)nc1Nc1cccc(S(=O)(=O)NC(C)(C)C)c1 [UM0141731:01, TG101209]
4. CN(CCOc1ccc(CC2SC(=O)NC2=O)cc1)c1ccccn1 (centres unmarked) [UM0121306:03, Rosiglitazone]
5. Nc1c(Br)cc(Br)cc1CN[C@H]1CC[C@H](O)CC1 [UM0142466:01, Ambroxol HCl]
6. CCc1c(C(=O)C(N)=O)c2c(OCC(=O)O)cccc2n1Cc1ccccc1 [UM0141806:01, Varespladib (LY315920)]

1: 23.55; 2: -0.01445; 3: 36.26; 4: 12.71; 5: 4.132; 6: 1.134

Given the entry Oc1nc(-c2ccc(C(F)(F)F)cc2)nc2c1CSCC2 [UM0141417:01, XAV-939] , report its measured Inh (PKA).
15.47
